# PROTOCOL_CONDITIONS: dog, in vivo, iv
OBSERVABLE: half-life

- CC(C)C[C@@H]1NC(=O)[C@H](Cc2ccc(NC(=O)CCS(N)(=O)=O)cc2)NC(=O)[C@H](CC(=O)O)NC(=O)[C@H]2CCCN2C(=O)[C@H](CCC(=O)O)NC(=O)[C@@H](NC(=O)[C@H](CCC(N)=O)NC(=O)CN2CCN(CC(=O)O)CCN(CC(=O)O)CCN(CC(=O)O)CC2)CSCc2cccc(c2)CSC[C@@H](C(N)=O)NC(=O)[C@H](CO)NC(=O)[C@H](Cc2c[nH]c3ccccc23)NC(=O)[C@H]([C@@H](C)O)NC1=O [[^111In]In-DPI-4501, metal not drawn]: 5.88 min

---

# TARGET_UNDER_TEST: human carbonic anhydrase IX (hCAIX-Fc) (Homo sapiens, UniProt Q16790)
# Construct: purchased SinoBliological (Sino Biological) 10107-H02H
# MEASUREMENT_PROTOCOL: Surface plasmon resonance assay with hCAIX-Fc
# Assay type: binding
# PROTOCOL_CONDITIONS: SPR dissociation half-life, hCAIX-Fc, 25° C.
Starred links: 1 amine or outer side, 2 acyl side, 3 side chain; linkers in the order of their positions; H or OH if unused. Positions of bridges follow the written chain, without caps; N, C: chain ends. Non-standard residues stand in square brackets, D forms with d. Residues, ends and D or L forms follow the SMILES beside them. *: point of attachment. DOTA = O=C(O)CN1CCN(CC(=O)O)CCN(CC(=O)*)CCN(CC(=O)O)CC1; mXylylene = c1cc(C[*:1])cc(C[*:2])c1; X2 = O=C(CN1CCC(N[*:1])CC1)[*:2]; hSer = N[C@@H](CCO)C(=O)O
OBSERVABLE: t1/2 category (activity)

• CC(C)C[C@@H]1NC(=O)[C@H](Cc2cccc(NC(=O)CCCS(N)(=O)=O)c2)NC(=O)[C@H](CC(=O)O)NC(=O)[C@H]2CCCN2C(=O)[C@H](CCC(=O)O)NC(=O)[C@@H](NC(=O)[C@H](CCC(N)=O)NC(=O)CN2CCN(C(=O)CN3CCN(CC(=O)O)CCN(CC(=O)O)CCN(CC(=O)O)CC3)CC2)CSCc2cccc(c2)CSC[C@@H](C(N)=O)NC(=O)[C@H](CO)NC(=O)[C@H](Cc2c[nH]c3ccccc23)NC(=O)[C@H]([C@@H](C)O)NC1=O [3BP-4452] = A (t1/2>15.0 minutes)
• CC(C)C[C@@H]1NC(=O)[C@H](Cc2c[nH]c3ccccc23)NC(=O)[C@H](CCO)NC(=O)[C@H]2CCCN2C(=O)[C@H](CCC(=O)O)NC(=O)[C@@H](NC(=O)[C@H](Cc2ccc(O)cc2)NC(=O)[C@@H](NC(=O)CN2CCC(NC(=O)CN3CCN(CC(=O)O)CCN(CC(=O)O)CCN(CC(=O)O)CC3)CC2)C(C)C)CSCc2cccc(c2)CSC[C@@H](C(N)=O)NC(=O)[C@H](CO)NC(=O)[C@H](Cc2c[nH]c3ccccc23)NC(=O)[C@H]([C@@H](C)O)NC1=O [3BP-4102] ({DOTA}-[X2]VYCE[dP][hSer]WLTWSC-NH2; linker 4-13 via mXylylene) = A (t1/2>15.0 minutes)
• CC(C)C[C@@H]1NC(=O)[C@H](Cc2c[nH]c3ccccc23)NC(=O)[C@H](CC(=O)O)NC(=O)[C@H]2CCCN2C(=O)[C@H](CCC(=O)O)NC(=O)[C@@H](NC(=O)[C@H](Cc2ccc(O)cc2)NC(=O)[C@@H](NC(=O)CN2CCC(NC(=O)CN3CCN(CC(=O)O)CCN(CC(=O)O)CCN(CC(=O)O)CC3)CC2)C(C)C)CSCc2cccc(c2)CSC[C@@H](C(N)=O)NC(=O)[C@H](CO)NC(=O)[C@H](Cc2c[nH]c3ccccc23)NC(=O)[C@H]([C@@H](C)O)NC1=O [3BP-3583] ({DOTA}-[X2]VYCE[dP]DWLTWSC-NH2; linker 4-13 via mXylylene) = A (t1/2>15.0 minutes)
